# Tested on: CAKI-1 renal
# Procedure Summary: NCI-60 one-dose screen, 48 h
# Experimental Conditions: 10 µM unless noted
Compounds without any hit were thinned out: in the full panel of roughly 83,000, 20% have a hit. Activity calls are given as the source filed them. How the source made its calls: active means growth percent below 10; inactive means the rest.
Classes used: active, inactive

NC(=O)c1cccc(N2Cc3ccccc3OC3=C2C(=O)c2c(O)ccc(O)c2C3=O)c1 | active
COc1ccc(/C(=N/O)c2cc(F)c(F)c(OC)c2F)cc1O | inactive
COc1ccc(-n2c(C)cc(-c3ccccc3)c2C)cc1 | inactive
CCn1cc(C(=O)O)c(=O)c2cc(F)c(N3CCN(S(=O)(=O)c4c(C)cc(C)cc4C)CC3)cc21 | inactive
COc1ccc(-c2nc3sccn3c2-c2ccnc(NCCCNS(=O)(=O)c3ccc(F)cc3)n2)cc1 | inactive
COc1ccc(/C=C/C(=O)OCC(=O)NNC(=O)c2ccccc2)cc1OC | inactive
O=C(c1ccccc1)C(Cl)C(Cl)c1ccccc1 (stereo not given) | inactive
O=C(c1ccncc1)N1N=C(c2ccc(Cl)cc2)CC1c1c[nH]c2ccccc12 (stereo not given) | inactive
COc1cc(/C=C2\C=C(c3ccc(F)cc3)N(Cc3ccccc3)C2=O)cc(OC)c1OC | inactive
CC1CCc2c(sc(NC(=O)CSc3nnc4ccccn34)c2C(N)=O)C1 (stereo not given) | inactive

* * *

# Tested on: MALME-3M melanoma
# Procedure Summary: NCI-60 one-dose screen, 48 h
# Experimental Conditions: 10 µM unless noted
Compounds without any hit were thinned out: in the full panel of roughly 83,000, 20% have a hit. Activity calls are given as the source filed them. The calls were made as follows: active = growth percent below 10; inactive = the rest.
Classes used: label 1 = active, label 0 = inactive

Cc1cc(N/C=c2\sc3ncnn3c2=O)no1 | label 0
COc1cc(/C=C\c2cc(OC)c(OC)c(OC)c2)cc(N/C=C\C(=O)c2c[nH]c3ccccc23)c1OC | label 1
NS(=O)(=O)c1ccc(NCC(=O)Nc2ccc(-c3nc4ccccc4s3)cc2)cc1 | label 0
COC(=O)CCCCCCN=Cc1c(O)c(O)c(C(C)C)c2cc(C)c(-c3c(C)cc4c(C(C)C)c(O)c(O)c(C=NCCCCCCC(=O)OC)c4c3O)c(O)c12 | label 0

* * *

# Test system: MDA-MB-435 melanoma
# Procedure Summary: NCI-60 one-dose screen, 48 h (100 = growth as untreated, 0 = no growth, -100 = all killed)
# Experimental Conditions: 10 µM unless noted
This is part of a sample that, as a whole, favours compounds with a hit. Of some 83,000 tested, about 20% had one in any assay.
# growth listing for each entry below
Reported Property: growth (%)

Cc1cc(Nc2nc(-c3ccc(F)cc3)nc3ccccc23)n[nH]1 | 31.2
O=C1OC(c2ccccc2)=N/C1=C\c1ccc([N+](=O)[O-])cc1 | 106
O=C(CC(O)c1ccncc1)c1ccccc1 (stereo unspecified) | 105
CCSc1nnc(NC(=O)COc2ccc(Cl)cc2C)s1 | 84
COC1=CC(c2ccc[nH]2)=N/C1=C\c1[nH]c(C)c(CCCn2cc(CCCCCCCCC[C@@H]3Cc4cc(O)ccc4C4CC[C@]5(C)[C@@H](O)CC[C@H]5C43)nn2)c1C (stereo partly specified) | 72.4
CCO/C=N/NC(=O)c1ccncc1 | 110
Cc1ccccc1C(=O)c1ccccc1C(=O)O | 105
COc1cc2nc(N3CCC[C@@H](NC4=CC(=O)c5ccccc5C4=O)C3)nc(N)c2cc1OC | 64.7
COc1ccc(/C=N/NC(=O)Cn2c(Cc3cccc4ccccc34)nc3ccccc32)cc1 | 103
COc1cc(C(=O)OCCCCCCCCCCC[P+](c2ccccc2)(c2ccccc2)c2ccccc2)ccc1O | -46.7
COc1cc(/C=C2\CCCC3=C2NC(C)=NC3c2cc(OC)c(OC)c(OC)c2)cc(OC)c1OC (stereo unspecified) | 5.2
C#CCN1C(=O)/C(=c2\sc3n(c2=O)C2C(NN=3)N(CC)C(=O)N2CC)c2ccccc21 (stereo unspecified) | -63.2
COc1ccc(-c2nc(-c3nc4ccc(F)cc4[nH]3)cc3c2[nH]c2ccccc23)cc1 | 27.5
CC/C=C\C/C=C\C[C@H]1C/C=C2/C(=O)C=C[C@H]2C/C=C\CCC(=O)O1 | 3.37
COc1ccc(NC(=O)c2cc3ccccc3nc2Nc2cc(OC)c(OC)c(OC)c2)cc1 | 63.9
COc1cc(/C=C2\CCCC3=C2N=C2SC(C)=NN2C3c2cc(OC)c(OC)c(OC)c2)cc(OC)c1OC (stereo unspecified) | -63.9
O=C(NNC(=S)Nc1ccccc1)c1ccccn1 | 48.4
N#CC1=C(N)OC2=C(C(=O)CCC2)C1c1ccco1 (stereo unspecified) | 98.9
C/C1=C\CCC2(C)OC2CC2CCC(C)(O)C(CC1)C2(C)C (stereo unspecified) | 110
O=C(Cc1c(F)cccc1Cl)Nc1ccc(S(=O)(=O)Nc2ncccn2)cc1 | 101
NC(=O)NNC(=O)c1ccccc1 | 105
